Form field: Half-life mini pigs (one value per entry).
- measurement-protocol: Pharmacokinetic study in mini pigs (i.v.)
- conditions-used: terminal half-life, female Gottingen mini pigs
Form entry: value (h) — number only.

Below, each entry is followed by its recorded Half-life mini pigs result.
1) S{Beta-180}-[2-[2-[[2-[2-[2-[[2-[2-[2-[[(4S)-4-carboxy-4-(15-carboxypentadecanoyl-amino)butanoyl]amino]ethoxy]ethoxy]acetyl]amino]ethoxy]ethoxy]acetyl]amino]-ethylamino]-2-oxoethyl]-Ala[Gln121,Leu168, … (protein) HPIPDSSPLLQFGGQVRQRYLYTDDAQQTEAHLEIREDGTVGGAADQSPESLLQLKALKPGVIQILGVKTSRFLCQRPDGALYGSLHFDPEACSFRELLLEDGYNVYQSEAHGLPLHLPGQKSPHRDPAPRGPARFLPLPGLPPALPEPPGILAPQPPDVGSSDPLSLVGPSQGRSPSYCS : 23
2) S{Beta-180}-[2-[2-[[2-[2-[2-[[2-[2-[2-[[(4S)-4-carboxy-4-(13-carboxytridecanoyl-amino)butanoyl]amino]ethoxy]ethoxy]acetyl]amino]ethoxy]ethoxy]acetyl]amino]-ethylamino]-2-oxoethyl]-Ala[Gln121,Leu168,Cy … (protein) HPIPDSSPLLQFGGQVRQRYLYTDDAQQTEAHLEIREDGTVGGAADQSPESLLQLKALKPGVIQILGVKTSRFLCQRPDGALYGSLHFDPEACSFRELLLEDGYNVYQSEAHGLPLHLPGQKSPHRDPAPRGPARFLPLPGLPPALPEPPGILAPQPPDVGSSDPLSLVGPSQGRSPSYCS : 3
3) S{Beta-180}-[2-[2-[[2-[2-[2-[[2-[2-[2-[[(4S)-4-carboxy-4-(17-carboxyheptadecanoyl-amino)butanoyl]amino]ethoxy]ethoxy]acetyl]amino]ethoxy]ethoxy]acetyl]amino]-ethylamino]-2-oxoethyl]-Ala[Gln121,Leu168, … (protein) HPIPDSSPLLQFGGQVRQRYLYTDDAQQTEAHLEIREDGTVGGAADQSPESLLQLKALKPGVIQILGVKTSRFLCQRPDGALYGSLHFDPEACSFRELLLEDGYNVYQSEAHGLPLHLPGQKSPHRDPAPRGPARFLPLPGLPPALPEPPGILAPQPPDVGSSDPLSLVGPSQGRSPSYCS : 70

Query: Quickly give me recorded Half-life mini pigs for S{Beta-181}-[2-[2-[[2-[2-[2-[[2-[2-[2-[[(4S)-4-carboxy-4-(13-carboxytridecanoyl-amino)butanoyl]amino]ethoxy]ethoxy]acetyl]amino]ethoxy]ethoxy]acetyl]amino]-ethylamino]-2-oxoethyl]-Ala[Gln121,Leu168,Cy … (protein) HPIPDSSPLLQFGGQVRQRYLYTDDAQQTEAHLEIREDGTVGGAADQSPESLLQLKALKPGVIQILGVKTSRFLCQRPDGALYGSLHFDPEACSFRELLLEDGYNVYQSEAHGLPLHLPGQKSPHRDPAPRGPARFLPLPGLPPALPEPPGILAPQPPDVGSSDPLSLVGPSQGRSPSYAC
Reply: 2

Recorded values, source patent US20170182124A1.
